- target.of.assay: T1, human interleukin-2 receptor β-chain (IL-2Rβ; CD122), recombinant protein (human, UniProt P14784 27-240)
- T1 construct: also called human IL-2R subunit CD122
- T1 sequence: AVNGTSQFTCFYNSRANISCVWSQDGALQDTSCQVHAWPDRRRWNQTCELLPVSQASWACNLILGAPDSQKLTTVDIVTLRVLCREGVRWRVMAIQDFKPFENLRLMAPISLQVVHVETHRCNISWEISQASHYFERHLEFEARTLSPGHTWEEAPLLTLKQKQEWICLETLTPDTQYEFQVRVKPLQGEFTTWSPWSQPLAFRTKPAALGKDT
- test.description: ELISA, bivalent VHH-hFc
readout.type: EC50 (nM)
Answers are plain numbers, in nM.

binder	val
22-MP03F12 VHH-hFc, monospecific bivalent (Fc fusion, IgG1 Fc LALA-PG; not shown: human IgG1 CH2 and CH3 domains (Fc)) EVQLVESGGGLVQAGGSLRLSCAASGSIFSINAMAWFRQVPGMERELVAAISRDGGASVYRDSVKGRFTISRDNSKNTVYLQMNTLKPEDTAIYVCAATRAIGWTARWITTDFDFWGQGTQVTVSS	0.124

Could I get EC50 for every one of these entries?
1. 168-MP02B09 VHH-hFc, monospecific bivalent (Fc fusion, IgG1 Fc LALA-PG; not shown: human IgG1 CH2 and CH3 domains (Fc)) EVQLVESGGGLVQAGGSLRLSCAASGRTFSTTEMGWFRQAPGKEREFVAAITWTGRGTMYAESVEGRFTISRENAKNMVYLQMNSLKPEDTAIYYCAAARRGRAAVRSEGGYDFWGQGTQVTVSS
2. 189-MP02B12 VHH-hFc, monospecific bivalent (Fc fusion, IgG1 Fc LALA-PG; not shown: human IgG1 CH2 and CH3 domains (Fc)) QVQLVESGGGLVQAGGSLRLSCAASGRADSNAIMAWFRQAPGKEREFIVAVTYSGMPTYQDDSVQGRFTASRDNAKNTVYLQMNSLKPEDTAVYYCAARMYSASTYYGDYDYWGQGTQVTVSS

0.053
0.053

Field request: EC50 | item: 18-MP03C03 VHH-hFc, monospecific bivalent (Fc fusion, IgG1 Fc LALA-PG; not shown: human IgG1 CH2 and CH3 domains (Fc)) QVQLVESGGGLVQPGGSLRLSCAISGGTLDSYGIGWVRQAPGKQREGVSCMSRSDDRTYYADSVKGRFTISKDSAKNTVYLQMTSLKPEDTAVYYCAAVDAYGCSLVQPTTYDFWGLGTQVTVSS
0.294
